system: SD rat heart rate; assay: Effect of S1P1 receptor agonists on rat heart rate; assay type: in vivo; conditions: Table 4; intragastric; 3 h
measureName: heart rate 3 h
Keep it simple and answer with nothing but the number.

Prompt: # lookup: SD rat heart rate heart rate 3 h, key = CCCc1nc(-c2ccc(Oc3ccc(C(O)CC(N)(CO)CO)cc3)cc2)co1 (stereo not drawn)
Response: 379.45

Prompt: # lookup: SD rat heart rate heart rate 3 h, key = CCCCCCCCc1ccc(CCC(N)(CO)CO)cc1 [FTY720, reference compound]
Response: 288.58

Prompt: # lookup: SD rat heart rate heart rate 3 h, key = NC(CO)(CO)CCc1ccc(Oc2ccc(-c3coc(C4CC4)n3)cc2)cc1
Response: 338.25

Prompt: # lookup: SD rat heart rate heart rate 3 h, key = CC(C)c1nc(-c2ccc(Oc3ccc(C(O)CC(N)(CO)CO)cc3)cc2)co1 (stereo not drawn)
Response: 358.58

Prompt: # lookup: SD rat heart rate heart rate 3 h, key = CCc1nc(-c2ccc(Sc3ccc(CCC(N)(CO)CO)cc3)cc2)co1
Response: 396.19

Prompt: # lookup: SD rat heart rate heart rate 3 h, key = NC(CO)(CO)CC(O)c1ccc(Oc2ccc(-c3coc(C4CC4)n3)cc2)cc1 (stereo not drawn)
Response: 377.36
